Experiment: Water solubility
Type: physicochemical
Settings: detection limit 5 μM
solubility: recorded values

{"columns": ["molecule", "op", "solubility / µM"],
 "data": [
  ["CCCCCCCCCCCCCC[C@@H](O)[C@@H](O)[C@H](CO[C@H]1O[C@H](CO)[C@H](O)[C@H](O)[C@H]1O)NC(=O)CCCCCCCCCCCNC(=O)CCCCCC", "=", 5],
  ["CCCCCCCCCCCCCC[C@@H](O)[C@@H](O)[C@H](CO[C@H]1O[C@H](CO)[C@H](O)[C@H](O)[C@H]1O)NC(=O)CCCCCCCCCCCNC(=O)c1ccccc1", "=", 7.2],
  ["CCCCCCCCCCCCCCCCCCCCCCCCCC(=O)N[C@@H](CO[C@H]1O[C@H](CO)[C@H](O)[C@H](O)[C@H]1O)[C@H](O)[C@H](O)CCCCCCCCCCCCCC [α-GalCer, α-galactosyl ceramide, reference compound]", "<", 5]
]}

====

Experiment: Metabolic stability, human liver microsome
Assay type: in vitro ADME
reportedProperty: metabolic stability in words

{"columns": ["compoundString", "reportedResult"],
 "data": [
  ["CCCCCCCCCCCCCC[C@@H](O)[C@@H](O)[C@H](CO[C@H]1O[C@H](CO)[C@H](O)[C@H](O)[C@H]1O)NC(=O)CCCCCCCCCCCNC(=O)CCCCCC", "good metabolic stability"],
  ["CCCCCCCCCCCCCC[C@@H](O)[C@@H](O)[C@H](CO[C@H]1O[C@H](CO)[C@H](O)[C@H](O)[C@H]1O)NC(=O)CCCCCCCCCCCNC(=O)CCCCCCCCCCCC", "good metabolic stability"],
  ["CCCCCCCCCCCCCC[C@@H](O)[C@@H](O)[C@H](CO[C@H]1O[C@H](CO)[C@H](O)[C@H](O)[C@H]1O)NC(=O)CCCCCCCCCCCNCCCCCCCCCCCCC", "good metabolic stability"]
]}

====

Tested on: mouse splenocytes
Test: Cytokine secretion assay using mouse splenocyte
Type: cell-based, C57BL/6 mice
Conditions: 1 nM, Fig. 5b
Relative ratio IL-17A/IFN-γ of cytokine production compared to α-GalCer: recorded values
reportedProperty: Relative ratio IL-17A/IFN-γ of cytokine production compared to α-GalCer

{"columns": ["compound", "targetOrSystem", "reportedResult"],
 "data": [
  ["CCCCCCCCCCCCCC[C@@H](O)[C@@H](O)[C@H](CO[C@H]1O[C@H](CO)[C@H](O)[C@H](O)[C@H]1O)NC(=O)CCCCCCCCCCCCC(=O)CCCCCC [7b]", "mouse splenocytes", 48.6],
  ["CCCCCCCCCCCCCC[C@@H](O)[C@@H](O)[C@H](CO[C@H]1O[C@H](CO)[C@H](O)[C@H](O)[C@H]1O)NC(=O)CCCCCCCCCCCNC(=O)CCCCCC [1b]", "mouse splenocytes", 6.43],
  ["CCCCCCCCCCCCCC[C@@H](O)[C@@H](O)[C@H](CO[C@H]1O[C@H](CO)[C@H](O)[C@H](O)[C@H]1O)NC(=O)CCCCCCCCCCCNC(=O)CCCCCCCCCCCC [1a]", "mouse splenocytes", 0.76]
]}

====

Assay: Metabolic stability, rat liver microsome
Type: in vitro ADME
Settings: liver microsomes, read-out: metabolic stability (liver microsome, T1/2) rat
reportedProperty: half-life

{"columns": ["compoundString", "reportedProperty", "reportedResult"],
 "data": [
  ["CCCCCCCCCCCCCC[C@@H](O)[C@@H](O)[C@H](CO[C@H]1O[C@H](CO)[C@H](O)[C@H](O)[C@H]1O)NC(=O)CCCCCCCCCCCNC(=O)c1ccccc1", "half-life", "2.82 h"],
  ["CCCCCCCCCCCCCC[C@@H](O)[C@@H](O)[C@H](CO[C@H]1O[C@H](CO)[C@H](O)[C@H](O)[C@H]1O)NC(=O)CCCCCCCCCCCNC(=O)CCCCCCCCCCCC", "half-life", "0.783 h"],
  ["CCCCCCCCCCCCCC[C@@H](O)[C@@H](O)[C@H](CO[C@H]1O[C@H](CO)[C@H](O)[C@H](O)[C@H]1O)NC(=O)CCCCCCCCCCCNC(=O)CCCCCC", "half-life", "> 3.33 h"],
  ["CCCCCCCCCCCCCC[C@@H](O)[C@@H](O)[C@H](CO[C@H]1O[C@H](CO)[C@H](O)[C@H](O)[C@H]1O)NC(=O)CCCCCCCCCCCN(C)C(=O)CCCCCCCCCCCC", "half-life", "0.383 h"],
  ["CCCCCCCCCCCCCC[C@@H](O)[C@@H](O)[C@H](CO[C@H]1O[C@H](CO)[C@H](O)[C@H](O)[C@H]1O)NC(=O)CCCCCCCCCCCNCCCCCCCCCCCCC", "half-life", "> 3.33 h"],
  ["CCCCCCCCCCCCCC[C@@H](O)[C@@H](O)[C@H](CO[C@H]1O[C@H](CO)[C@H](O)[C@H](O)[C@H]1O)NC(=O)CCCCCCCCCCCNC(=O)CCCCCCCNC(=O)CC", "half-life", "1.07 h"]
]}

====

System: mouse splenocytes
Assay: Cytokine secretion assay using mouse splenocyte
Type: cell-based, C57BL/6 mice
Conditions: 1 nM, Fig. 5a
Description: Spleen cell suspensions (from C57BL/6 mice) were prepared in complete medium (RPMI 1,640 media supplemented with 10% FBS and 1% penicillin–streptomycin) and seeded into 96-well plates (6.0 × 10^5 cells/well). Lipid ligands were added, and the mixture were incubated at 37 °C for 48 h. IFN-γ, IL-4 and IL-17A release were measured with an ELISA kit (Affymetrix).
reportedProperty: Relative ratio IL-4/IFN-γ of cytokine production compared to α-GalCer

{"columns": ["compoundString", "reportedResult"],
 "data": [
  ["CCCCCCCCCCCCCC[C@@H](O)[C@@H](O)[C@H](CO[C@H]1O[C@H](CO)[C@H](O)[C@H](O)[C@H]1O)NC(=O)CCCCCCCCCCCNC(=O)CCCCCCCCCCCC", 1.27],
  ["CCCCCCCCCCCCCC[C@@H](O)[C@@H](O)[C@H](CO[C@H]1O[C@H](CO)[C@H](O)[C@H](O)[C@H]1O)NC(=O)CCCCCCCCCCCNCCCCCCC", 18.3],
  ["CCCCCCCCCCCCCC[C@@H](O)[C@@H](O)[C@H](CO[C@H]1O[C@H](CO)[C@H](O)[C@H](O)[C@H]1O)NC(=O)CCCCCCCCCCCNC(=O)CCCCCC", 5.04],
  ["CCCCCCCCCCCCCC[C@@H](O)[C@@H](O)[C@H](CO[C@H]1O[C@H](CO)[C@H](O)[C@H](O)[C@H]1O)NC(=O)CCCCCCCCCCCNC(=O)CCCCCCCNC(=O)CC", 3.15],
  ["CCCCCCCCCCCCCC[C@@H](O)[C@@H](O)[C@H](CO[C@H]1O[C@H](CO)[C@H](O)[C@H](O)[C@H]1O)NC(=O)CCCCCCCCCCCNC(=O)c1ccccc1", 10.2],
  ["CCCCCCCCCCCCCC[C@@H](O)[C@@H](O)[C@H](CO[C@H]1O[C@H](CO)[C@H](O)[C@H](O)[C@H]1O)NC(=O)CCCCCCCCCCCCC(=O)CCCCCC", 12.7]
]}

====

IL-17A production: recorded values
Test system: mouse splenocytes
Assay: Cytokine secretion assay using mouse splenocyte
Format: cell-based, C57BL/6 mice
Design: unit not given here
Details: 1 nM ligand, 48 h, Fig. S2c

{"columns": ["compoundString", "IL-17A production"],
 "data": [
  ["CCCCCCCCCCCCCC[C@@H](O)[C@@H](O)[C@H](CO[C@H]1O[C@H](CO)[C@H](O)[C@H](O)[C@H]1O)NC(=O)CCCCCCCCCCCNC(=O)c1ccccc1", 1651],
  ["CCCCCCCCCCCCCC[C@@H](O)[C@@H](O)[C@H](CO[C@H]1O[C@H](CO)[C@H](O)[C@H](O)[C@H]1O)NC(=O)CCCCCCCCCCCNC(=O)CCCCCC", 976]
]}

====

Relative ratio IL-17A/IFN-γ of cytokine production compared to α-GalCer: recorded values
Test system: mouse splenocytes
Experiment: Cytokine secretion assay using mouse splenocyte
Assay type: cell-based, C57BL/6 mice
Details: 1 nM, Fig. 5b
reportedProperty: Relative ratio IL-17A/IFN-γ of cytokine production compared to α-GalCer

{"columns": ["compoundString", "reportedResult"],
 "data": [
  ["CCCCCCCCCCCCCC[C@@H](O)[C@@H](O)[C@H](CO[C@H]1O[C@H](CO)[C@H](O)[C@H](O)[C@H]1O)NC(=O)CCCCCCCCCCCNC(=O)c1ccccc1", "18.0 ± 1.7"],
  ["CCCCCCCCCCCCCC[C@@H](O)[C@@H](O)[C@H](CO[C@H]1O[C@H](CO)[C@H](O)[C@H](O)[C@H]1O)NC(=O)CCCCCCCCCCCNC(=O)CCCCCCCNC(=O)CC", "2.98 ± 0.03"],
  ["CCCCCCCCCCCCCC[C@@H](O)[C@@H](O)[C@H](CO[C@H]1O[C@H](CO)[C@H](O)[C@H](O)[C@H]1O)NC(=O)CCCCCCCCCCCNCCCCCCC", "66.7 ± 27.4"]
]}
